test: Cytotoxicity against HDF cells assessed as cell viability at 100 uM by MTT assay; assay type: cell-based; settings: human, read-out: Activity
Measurement kind: viability at 100 µM (%)
Express it in %; write the number only.

Below, 4 molecules whose answers are already recorded.
>>> print(df.to_string())
                                   molecule  test_value
0  COc1ccc(-c2nn(-c3ccccc3)cc2/C=N\NC(=S)Nc2ccccc2)cc1        52.6
1  CC(=O)NC1=NN(C(C)=O)C(c2cn(-c3ccccc3)nc2-c2ccc(Cl)cc2)S1 (stereo not given)        57.7
2  COc1ccc(-c2nn(-c3ccccc3)cc2C2SC(N(C(C)=O)c3ccccc3)=NN2C(C)=O)cc1 (stereo not given)        61.4
3  NC(=S)N/N=C\c1cn(-c2ccccc2)nc1-c1ccc(Br)cc1        57.6

Now consider the entry below.
Input line: Look up and state reported viability at 100 µM for CC(=O)NC1=NN(C(C)=O)C(c2cn(-c3ccccc3)nc2-c2ccc(Br)cc2)S1 (stereo not given)
Output line: 51.6

----------
Reported viability at 100 µM values for the following compounds.
experiment: Cytotoxicity against HDF cells assessed as cell viability at 100 uM by MTT assay; type: cell-based; details: human, read-out: Activity
Express it in %; write the number only.

Below, 2 compounds whose answers are already recorded.
>>> print(df.to_string())
                            chemical_string  test_value
0  O=C1CS/C(=N/N=C\c2cn(-c3ccccc3)nc2-c2ccc(Br)cc2)N1c1ccccc1        57.4
1  S=C(N/N=C\c1cn(-c2ccccc2)nc1-c1ccc(Br)cc1)Nc1ccccc1        58.7

Input line: Look up and state reported viability at 100 µM for NC(=S)N/N=C\c1cn(-c2ccccc2)nc1-c1ccc(Cl)cc1
Output line: 71.7

Input line: Look up and state reported viability at 100 µM for COc1ccc(-c2nn(-c3ccccc3)cc2/C=N\NC2=NC(=O)CS2)cc1
Output line: 59.7

----------
experiment: Cytotoxicity against HDF cells assessed as cell viability at 100 uM by MTT assay; assay type: cell-based; conditions: human, read-out: Activity
Measurement kind: viability at 100 µM (%)
Express it in %; write the number only.

Below, 3 compounds whose answers are already recorded.
In [3]: df
Out[3]:
                                   compound     measurement_kind  test_value
0  O=C1CS/C(=N/N=C\c2cn(-c3ccccc3)nc2-c2ccc(Cl)cc2)N1c1ccccc1  viability at 100 µM        60.7
1  CC(=O)N(C1=NN(C(C)=O)C(c2cn(-c3ccccc3)nc2-c2ccc(Cl)cc2)S1)c1ccccc1 (centres undefined)  viability at 100 µM        61.7
2  CC(=O)N(C1=NN(C(C)=O)C(c2cn(-c3ccccc3)nc2-c2ccc(Br)cc2)S1)c1ccccc1 (centres undefined)  viability at 100 µM        51.4

Input line: Look up and state reported viability at 100 µM for S=C(N/N=C\c1cn(-c2ccccc2)nc1-c1ccc(Cl)cc1)Nc1ccccc1
Output line: 61.7

Input line: Look up and state reported viability at 100 µM for O=C1CSC(N/N=C\c2cn(-c3ccccc3)nc2-c2ccc(Cl)cc2)=N1
Output line: 58.7

Input line: Look up and state reported viability at 100 µM for COc1ccc(-c2nn(-c3ccccc3)cc2/C=N\NC(N)=S)cc1
Output line: 63.4

Input line: Look up and state reported viability at 100 µM for COc1ccc(-c2nn(-c3ccccc3)cc2/C=N\N=C2\SCC(=O)N2c2ccccc2)cc1
Output line: 63.4

Input line: Look up and state reported viability at 100 µM for O=C1CSC(N/N=C\c2cn(-c3ccccc3)nc2-c2ccc(Br)cc2)=N1
Output line: 55.6

Input line: Look up and state reported viability at 100 µM for COc1ccc(-c2nn(-c3ccccc3)cc2C2SC(NC(C)=O)=NN2C(C)=O)cc1 (centres undefined)
Output line: 56.7

----------
molecular target: Prostaglandin G/H synthase 1 (Ovis aries)
Sequence (P05979 whole entry): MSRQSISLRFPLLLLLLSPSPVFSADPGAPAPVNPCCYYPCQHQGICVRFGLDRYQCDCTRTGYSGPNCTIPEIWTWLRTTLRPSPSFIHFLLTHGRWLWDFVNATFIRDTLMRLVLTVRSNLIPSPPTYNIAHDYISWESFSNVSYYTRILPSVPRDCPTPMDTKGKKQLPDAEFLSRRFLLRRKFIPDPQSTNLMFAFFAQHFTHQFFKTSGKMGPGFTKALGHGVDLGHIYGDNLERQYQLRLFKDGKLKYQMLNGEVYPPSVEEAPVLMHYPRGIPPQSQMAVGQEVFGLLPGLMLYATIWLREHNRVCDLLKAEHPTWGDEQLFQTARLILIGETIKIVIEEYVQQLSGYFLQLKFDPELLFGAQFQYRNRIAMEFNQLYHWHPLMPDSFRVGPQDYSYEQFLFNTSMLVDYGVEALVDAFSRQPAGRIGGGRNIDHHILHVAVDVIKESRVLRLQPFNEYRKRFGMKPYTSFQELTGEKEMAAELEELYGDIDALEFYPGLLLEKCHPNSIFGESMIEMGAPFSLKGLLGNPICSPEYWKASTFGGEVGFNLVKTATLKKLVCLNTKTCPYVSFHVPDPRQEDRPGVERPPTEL
Measurement kind: pIC50
Friendly reminder that pIC50 comes from taking -log10 of the concentration in mol/L.

                                   compound  test_value
0  COc1ccc(-c2nn(-c3ccccc3)cc2/C=N\N=C2\SCC(=O)N2c2ccccc2)cc1        4.21

Input line: Param request: pIC50 | system Prostaglandin G/H synthase 1 (Ovis aries) | item COc1ccc(-c2nn(-c3ccccc3)cc2/C=N\NC(=S)Nc2ccccc2)cc1
Output line: 4.37

Input line: Param request: pIC50 | system Prostaglandin G/H synthase 1 (Ovis aries) | item O=C1CSC(N/N=C\c2cn(-c3ccccc3)nc2-c2ccc(Cl)cc2)=N1
Output line: 4.22

Input line: Param request: pIC50 | system Prostaglandin G/H synthase 1 (Ovis aries) | item CC(=O)NC1=NN(C(C)=O)C(c2cn(-c3ccccc3)nc2-c2ccc(Cl)cc2)S1 (centres undefined)
Output line: 4.15

Input line: Param request: pIC50 | system Prostaglandin G/H synthase 1 (Ovis aries) | item O=C1CS/C(=N/N=C\c2cn(-c3ccccc3)nc2-c2ccc(Br)cc2)N1c1ccccc1
Output line: 4.22

Input line: Param request: pIC50 | system Prostaglandin G/H synthase 1 (Ovis aries) | item CC(=O)N(C1=NN(C(C)=O)C(c2cn(-c3ccccc3)nc2-c2ccc(Cl)cc2)S1)c1ccccc1 (centres undefined)
Output line: 4.15

----------
The reader will find pIC50 measurements below, all made with Prostaglandin G/H synthase 1 (Ovis aries).
Friendly reminder that pIC50 comes from taking -log10 of the concentration in mol/L.

In [3]: df
Out[3]:
                            chemical_string  measurement_kind  test_value
0  O=C1CS/C(=N/N=C\c2cn(-c3ccccc3)nc2-c2ccc(Cl)cc2)N1c1ccccc1             pIC50        4.21
1  S=C(N/N=C\c1cn(-c2ccccc2)nc1-c1ccc(Br)cc1)Nc1ccccc1             pIC50        4.18

Now consider the entry below.
Input line: Param request: pIC50 | system Prostaglandin G/H synthase 1 (Ovis aries) | item NC(=S)N/N=C\c1cn(-c2ccccc2)nc1-c1ccc(Cl)cc1
Output line: 4.25
